Target: T1, His-tagged human PD-1 protein (human, UniProt Q15116 25-170, limits assumed)
T1 construct: SPR analyte; also called his-tagged antigen PD-1; not shown: His tag
T1 sequence (Q15116 25-170 limits assumed): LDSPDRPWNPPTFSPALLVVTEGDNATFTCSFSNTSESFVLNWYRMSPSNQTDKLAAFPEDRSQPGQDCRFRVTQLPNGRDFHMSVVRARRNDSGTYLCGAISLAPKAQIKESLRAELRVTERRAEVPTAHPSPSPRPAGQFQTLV
Assay: SPR; Fab-SASA captured on immobilised BSA, his-tagged PD-1 as analyte
Protocol: For affinity ranking, BSA was immobilized onto the sensor chip using amine coupling method. The selected Fab-SASA secreted to the culture medium was injected and captured by BSA through the tight binding between BSA and SASA (capture phase). After equilibration, his-tagged antigen PD-1 was injected for 300 seconds (association phase) followed by the injection of running buffer for 900 seconds (dissociation phase). […] The process was repeated until all selected Fab-SASA proteins were analyzed. […]
parameter measured: kon (M⁻¹ s⁻¹)
One number for each entry, in M⁻¹ s⁻¹.

Incoming: Give the measured kon of AS05616 (Fab, V domains shown, Humanized Fab-SASA clone from the phage library) VH: EVQLVESGGGLVQPGGSLRLSCAASGFVFSRYDMAWVRQTPGKGLEWVSFISGGGSNTYYPDTVKGRFTISRDNSKNTLYLQMNSLRAEDTAVYYCISPYYYAMEYWGQGTTVTVSS VL: DIQMTQSPSSISTSVGDRVTITCKASQDVDTAVAWYQQKPGKSPKLLIHWASTRHTGVPSRFSGSGSGTDFTLTISSLQPEDFADYFCQQYSTFPWTFGGGTKVEIK .
Outgoing: 336000
